Entries and their HC50
- Test system: horse red blood cells
- Type: cell-based
- Measurement setup: red cells of horse
Where a SMILES comes first, the peptide text is derived from it.
Number in µM, nothing else.

{"Compound": "CC[C@H](C)[C@H](NC(=O)[C@H](CCCCN)NC(=O)[C@H](CCCCN)NC(=O)[C@H](Cc1c[nH]c2ccccc12)NC(=O)[C@H](CC(C)C)NC(=O)CN)C(=O)N[C@@H](CCCCN)C(=O)N[C@@H](CC(N)=O)C(=O)N[C@H](C(=O)N[C@@H](C)C(=O)N[C@@H](C)C(=O)N[C@@H](C)C(=O)N[C@@H](C)C(=O)NCC(=O)N[C@@H](CCCCN)C(=O)N[C@@H](C)C(=O)N[C@@H](C)C(=O)N[C@@H](CC(C)C)C(=O)NCC(=O)N[C@@H](C)C(=O)N[C@@H](CC(C)C)C(N)=O)C(C)C [t-DPH1-K4] (H-GLWKKIKNVAAAAGKAALGAL-NH2)", "Number": 444.8}
{"Compound": "CC[C@H](C)[C@H](NC(=O)[C@H](CCCCN)NC(=O)[C@H](CCCCN)NC(=O)[C@H](Cc1c[nH]c2ccccc12)NC(=O)[C@H](CC(C)C)NC(=O)CN)C(=O)N[C@@H](CCCCN)C(=O)N[C@@H](CC(N)=O)C(=O)N[C@H](C(=O)N[C@@H](C)C(=O)N[C@@H](CCCCN)C(=O)N[C@@H](C)C(=O)N[C@@H](C)C(=O)NCC(=O)N[C@@H](CCCCN)C(=O)N[C@@H](C)C(=O)N[C@@H](C)C(=O)N[C@@H](CC(C)C)C(=O)NCC(=O)N[C@@H](C)C(=O)N[C@@H](CC(C)C)C(N)=O)C(C)C [t-DPH1-5K] (H-GLWKKIKNVAKAAGKAALGAL-NH2)", "Number": 19.39}
{"Compound": "CC[C@H](C)[C@H](NC(=O)[C@H](CCCCN)NC(=O)[C@H](CCCCN)NC(=O)[C@H](Cc1c[nH]c2ccccc12)NC(=O)[C@H](CC(C)C)NC(=O)CN)C(=O)N[C@@H](CCCCN)C(=O)N[C@@H](CC(N)=O)C(=O)N[C@H](C(=O)N[C@@H](C)C(=O)N[C@@H](CCCCN)C(=O)N[C@@H](C)C(=O)N[C@@H](C)C(=O)NCC(=O)N[C@@H](CCCCN)C(=O)N[C@@H](C)C(=O)N[C@@H](C)C(=O)N[C@@H](CCCCN)C(=O)NCC(=O)N[C@@H](C)C(=O)N[C@@H](CC(C)C)C(N)=O)C(C)C [t-DPH1-6K] (H-GLWKKIKNVAKAAGKAAKGAL-NH2)", "Number": 834.6}

Would you kindly look at the next entry?
In: Consider the compound CC[C@H](C)[C@H](NC(=O)[C@H](CCCCN)NC(=O)[C@H](CO)NC(=O)[C@H](Cc1c[nH]c2ccccc12)NC(=O)[C@H](CC(C)C)NC(=O)CN)C(=O)N[C@@H](CCCCN)C(=O)N[C@@H](CC(N)=O)C(=O)N[C@H](C(=O)N[C@@H](C)C(=O)N[C@@H](C)C(=O)N[C@@H](C)C(=O)N[C@@H](C)C(=O)NCC(=O)N[C@@H](CCCCN)C(=O)N[C@@H](C)C(=O)N[C@@H](C)C(=O)N[C@@H](CC(C)C)C(=O)NCC(=O)N[C@@H](C)C(=O)N[C@@H](CC(C)C)C(N)=O)C(C)C [t-DPH1] (H-GLWSKIKNVAAAAGKAALGAL-NH2) and give its recorded HC50.
Out: 106.4

====

- Tested on: NCI-H838 (human non-small cell lung cancer)
- Type: cell-based
- Measurement setup: 24 h
Where a SMILES comes first, the peptide text is derived from it.
Test readout: pIC50
Lab note — pIC50 values are minus log10 of concentrations in M.

In: Consider the compound CC[C@H](C)[C@H](NC(=O)[C@H](CCCCN)NC(=O)[C@H](CCCCN)NC(=O)[C@H](Cc1c[nH]c2ccccc12)NC(=O)[C@H](CC(C)C)NC(=O)CN)C(=O)N[C@@H](CCCCN)C(=O)N[C@@H](CC(N)=O)C(=O)N[C@H](C(=O)N[C@@H](C)C(=O)N[C@@H](CCCCN)C(=O)N[C@@H](C)C(=O)N[C@@H](C)C(=O)NCC(=O)N[C@@H](CCCCN)C(=O)N[C@@H](C)C(=O)N[C@@H](C)C(=O)N[C@@H](CCCCN)C(=O)NCC(=O)N[C@@H](C)C(=O)N[C@@H](CC(C)C)C(N)=O)C(C)C [t-DPH1-6K] (H-GLWKKIKNVAKAAGKAAKGAL-NH2) and give its recorded pIC50.
Out: 3.73

====

- System: NCI-H838 (human non-small cell lung cancer)
- Assay type: cell-based
- Measurement setup: 24 h
Where a SMILES comes first, the peptide text is derived from it.
Entries and their IC50
Number in µM, nothing else.

{"Compound": "CC[C@H](C)[C@H](NC(=O)[C@H](CCCCN)NC(=O)[C@H](CCCCN)NC(=O)[C@H](Cc1c[nH]c2ccccc12)NC(=O)[C@H](CC(C)C)NC(=O)CN)C(=O)N[C@@H](CCCCN)C(=O)N[C@@H](CC(N)=O)C(=O)N[C@H](C(=O)N[C@@H](C)C(=O)N[C@@H](CCCCN)C(=O)N[C@@H](C)C(=O)N[C@@H](C)C(=O)NCC(=O)N[C@@H](CCCCN)C(=O)N[C@@H](C)C(=O)N[C@@H](C)C(=O)N[C@@H](CC(C)C)C(=O)NCC(=O)N[C@@H](C)C(=O)N[C@@H](CC(C)C)C(N)=O)C(C)C [t-DPH1-5K] (H-GLWKKIKNVAKAAGKAALGAL-NH2)", "IC50, µM": 1.8}
{"Compound": "CC[C@H](C)[C@H](NC(=O)[C@H](CCCCN)NC(=O)[C@H](CCCCN)NC(=O)[C@H](Cc1c[nH]c2ccccc12)NC(=O)[C@H](CC(C)C)NC(=O)CN)C(=O)N[C@@H](CCCCN)C(=O)N[C@@H](CC(N)=O)C(=O)N[C@H](C(=O)N[C@@H](C)C(=O)N[C@@H](C)C(=O)N[C@@H](C)C(=O)N[C@@H](C)C(=O)NCC(=O)N[C@@H](CCCCN)C(=O)N[C@@H](C)C(=O)N[C@@H](C)C(=O)N[C@@H](CC(C)C)C(=O)NCC(=O)N[C@@H](C)C(=O)N[C@@H](CC(C)C)C(N)=O)C(C)C [t-DPH1-K4] (H-GLWKKIKNVAAAAGKAALGAL-NH2)", "IC50, µM": 10.1}

Would you kindly look at the next entry?
In: Consider the compound CC[C@H](C)[C@H](NC(=O)[C@H](CCCCN)NC(=O)[C@H](CO)NC(=O)[C@H](Cc1c[nH]c2ccccc12)NC(=O)[C@H](CC(C)C)NC(=O)CN)C(=O)N[C@@H](CCCCN)C(=O)N[C@@H](CC(N)=O)C(=O)N[C@H](C(=O)N[C@@H](C)C(=O)N[C@@H](C)C(=O)N[C@@H](C)C(=O)N[C@@H](C)C(=O)NCC(=O)N[C@@H](CCCCN)C(=O)N[C@@H](C)C(=O)N[C@@H](C)C(=O)N[C@@H](CC(C)C)C(=O)NCC(=O)N[C@@H](C)C(=O)N[C@@H](CC(C)C)C(N)=O)C(C)C [t-DPH1] (H-GLWSKIKNVAAAAGKAALGAL-NH2) and give its recorded IC50.
Out: 23.5
